Tested on: Staphylococcus aureus
measurement notes: Antimicrobial activity against hospital methicillin-resistant Staphylococcus aureus 54/05 after 18 hrs by twofold serial microdilution method
Format: functional
cond: 54/05, 18 h
Kindly supply the reported MIC values for the records listed here.
Give bare numbers, in µg/mL.

• FC(F)(F)c1cccc(NC(=S)Nc2cccc(Br)c2)c1 = 0.5
• FC(F)(F)c1cccc(NC(=S)NCCc2ccccc2)c1 = 8
• Fc1ccc(NC(=S)Nc2cccc(C(F)(F)F)c2)cc1Cl = 1
• FC(F)(F)c1cccc(NC(S)=Nc2ccc(Cl)c(Cl)c2)c1 = 2
• FC(F)(F)c1cccc(NC(S)=NCc2ccccc2)c1 = 8

Would you be so kind as to report MIC for each listed record?
1. FC(F)(F)c1cccc(NC(=S)Nc2ccc(Cl)cc2)c1
2. Fc1cccc(NC(=S)Nc2cccc(C(F)(F)F)c2)c1

[16, 8]

Ref: ChEMBL document CHEMBL3616436
